Reported soluble fraction (log2) is given for each of the following sequences.
- Protocol Details: soluble fraction after stress (log2 fold change); higher = more stays soluble; pooled small domains, quantitative proteomics
- Measurement Conditions: stress: 50 degC
Please respond with just the number, no unit label.

// worked examples, soluble fraction (log2) included
HMRIGINDRIHEIVDVLRLKKSTPFEDLFSGLVTRFDLVITFLALLEMGKLRLLRLYQTDPLAPLHVEYTG: -0.152
HMPLVIIRGIEGVFSSEEKAEAIRKVTDALVSVKGENVRGFAWVVFEEVKSGDWGIGGESITAEKVIMSL: -0.0828
HMKTKTFSPGEIVKIQTRDKSWQGTILESHDPEIILLKLTTGYNIGIRENEIINAKVIEKSKKDVKDAE: 0.183
HMDADRILHKTLKPRELEIYQLIKAYLEEHSQIANAKVQEISGLSEATTRRYLNIFVEFGLLKTS: -0.0476

Lab book: soluble fraction (log2) of HMTLTIEDGYVNAKLKTTVEGLAEDSTIKVDSIEYTNAGKNDILTVFVEDKPYRVEKYKINIAPEDS noted as 0.0185

Lab book: soluble fraction (log2) of HMSQKVQEDFLGDIRKNEIAVTVFLINGVKLQGVITWFDDASILLRRDGHTQLIYKHAVSTIMPGVAVDI noted as -0.118

Lab book: soluble fraction (log2) of HMPERMLEPLLNGNEIMKVTQLQPGPKVGLIRDALLQAQISGDVTDTESAKAFVQDYAKRNI noted as 0.06

Lab book: soluble fraction (log2) of HMTIATLGERIRKLRKERGLTLAELAGDKLSKGMLSLIENNRAKPSMESLEYIAKRLGVEPAELLE noted as 0.176

Lab book: soluble fraction (log2) of HMESPELIHILKEAEWQIWQQIQGLPEKQRIAMTLFAMDDLSYQEIADVMKVSVSAIESLLFRARTQLKKY noted as -0.601

----------
- Protocol Details: soluble fraction after stress (log2 fold change); higher = more stays soluble; pooled small domains, quantitative proteomics
- Measurement Conditions: stress: 50 degC
Quantity Measured: soluble fraction (log2)

// worked examples, soluble fraction (log2) included
HMVVPRSFKYEVLAHGGWAGNAQRYQTKEEALHAGLALSRRWTAVEDYRAVPSDDLPNQPAL: -0.259
HMEAKSSTKALLDVVLGRNGVSTANVAKSLNISVQNASTRLKKLSSEGVIMRSEVSSPTGGIEFIYS: -0.0504
HMDVTDRLARRLQGLRSAQGLSLDALAARSGVSRSNISLIERGQSSPTATVLDKLSAALGVTLAALFEEP: -0.474
HMDPHEEELLRQLIRGDIAGYEVLFHKYYPTFFAFIKGMTKETVVAEDITQNIFMKVWLNRERLDAA: -0.0635
HMETLEDHRKKTRQQLFDALSHLLQTSTFESLTMAKIAEEAGVGRTAVYNHFQDKEALLLAFITYETGQ: -1.05
HMDATGDPIADRILQALQLGELTRTQVNNVFQRHLAAARISQALNFLRSLKRADMRMEETAGRSGEVWFAI: -0.341
HMTPADEAGNDLDIGQTVKILRRVSEGQYEVSYRGTTWQARALNAQAAVEPSFAVIGGKEGNILLVHL: 0.122
HMGGPRDVPYSTFLIEVEKGQVAEVTIQDHKITGTYKNSNEPFITNAPDDPDLVSRLIKYGVGVQAKPPE: -0.0153
HMKADIEQVQRAFDTLDPKNQQLVLDAMKAATAELDPNSDQFKTNTEFINDNQKALDRHAKAS: 0.125

Let us move to another entry and its soluble fraction (log2).
Lab book: soluble fraction (log2) of HMQYPSSLDSRAKQSLYDNLERNEILALALDNVIQSNKLDGWRDGGIKERKLRLAINNLLKNDEHTDNIME noted as -0.0155

----------
- Protocol Details: soluble fraction after stress (log2 fold change); higher = more stays soluble; pooled small domains, quantitative proteomics
- Measurement Conditions: stress: 50 degC
Reported soluble fraction (log2) is given for each of the following sequences.
Please respond with just the number, no unit label.

HMTVDYDKFTKDTVVQHNKFGKGVIIMTSGDGEDKIASIAFQGLGVKRFSLAIAASNLKILGKVNED: -0.133
HMPAAFALLTDREREIAALIAQRLTNREIAEKLYLSEGSVKQYVNQLYAKLGIEGDTRTKRRRLAEQAK: 0.11

Let us move to another entry and its soluble fraction (log2).
Lab book: soluble fraction (log2) of HMQASTGNVNTETLNLRKEASTSADILKLLSQGDEVEIVSESNGWYKVKYKDTEGFVSKEYITVN noted as 0.245

----------
- Protocol Details: soluble fraction after stress (log2 fold change); higher = more stays soluble; pooled small domains, quantitative proteomics
- Measurement Conditions: stress: 50 degC
Please note: Met applies when soluble fraction (log2) is -0.04 or greater, and Not met applies otherwise.

HMSLSASELDQLRMMTKVSHMYHTRGMVQIDIARSLGLSQARVSRLLSAAEDANIVRTVVVA: Not met

Task: Hello, I need to know if HMQIKEVDYGTFISMTEDGEIGRVEIQQQENTILFTDEDETAVYKTAMVEDDQLTQRLYDAGISFYGEE has measured soluble fraction (log2) not below -0.04. Thanks!
Result: Met

Task: Hello, I need to know if HMNEQKVSSLLTPRQLAFIDEYLIDFNGAQAAIRAGYSHKTAGPQAARLLVNVNISRMIAERIEARNK has measured soluble fraction (log2) not below -0.04. Thanks!
Result: Not met

Task: Hello, I need to know if HMSVPSLVGKTDSEAQSAIKSAGLKVGTVTYQYSDETEKGYVVSQSPYSGNKVNAGSTVNIVVSKGK has measured soluble fraction (log2) not below -0.04. Thanks!
Result: Met

Task: Hello, I need to know if HMEREQNIEHGRAIVERELKRLGLSDVYTIADIATALRHDDVDQFLAKIGFGDIQSTQIGGAIAALQQR has measured soluble fraction (log2) not below -0.04. Thanks!
Result: Not met

Task: Hello, I need to know if HMGGLSAEQKNGIQSVLKNFDPKNLTSADAKSITSEFKKLGVQPGKDLETTMAASGFDAKEVGRLAF has measured soluble fraction (log2) not below -0.04. Thanks!
Result: Met

----------
- Protocol Details: soluble fraction after stress (log2 fold change); higher = more stays soluble; pooled small domains, quantitative proteomics
- Measurement Conditions: stress: 50 degC
Quantity Measured: soluble fraction (log2)
Please respond with just the number, no unit label.

HMQAPVVNHDLIKSFERQWREIKATAKGKVRSVNLSDARSILQSFLNTLQKGPGTDSLISSVQNELSLIA: -0.00186
HMADLPQATALADVKGDVQMQGIQFGYDPEKIIIHDLNLHARPGSLVAIVGPTGAGKTTIINLLMRFYD: -0.313
HMSSIHQDAKQQLHEYIRTYIQPLMRAGKQVTVWDIIGHVTIRKPKLVQKIGTQQLINMVQDLLE: -0.213

Lab book: soluble fraction (log2) of HMEIETPEIRAIHDLLELLANKAKKPEQEQFVQAHPEVQWAKVEANKNGTFAVGKVKAYLKTLQA noted as -0.308

Lab book: soluble fraction (log2) of HMEYTVNRLAQISGVSKRTLRYYDEIGLLRPERVNPNGYRIYGQMQVDLLQQILFYRELGLPLEEIREII noted as -0.467

----------
- Protocol Details: soluble fraction after stress (log2 fold change); higher = more stays soluble; pooled small domains, quantitative proteomics
- Measurement Conditions: stress: 50 degC
Quantity Measured: soluble fraction (log2)
Please respond with just the number, no unit label.

HMGESEKTLELVSQKDALVDEAFFFVRFQALLESNKTKGAQDLLDQSNHLSAAKLLQANAYLDIV: 0.119
HMEREQPFAVTEAYRGMRLDRFLQAMLPRMSRAAIQDAIDNRVRLGSGRAAKASLRPAIGDTVFFGQRI: -0.822
HMYLQKGISNGKVYLSIVHGYRDPVTKKVRRKTIRSLGYLEDLEKQYADPIKHFEAVVAKMNEEEALE: -0.517

Lab book: soluble fraction (log2) of HMKDLQHLVGEKGTTVTPLRPSGIALIKGSRYDVVSEGSFIQQGVAVEVIKVEGRRVVVSPLQED noted as -0.16

Lab book: soluble fraction (log2) of HMYFFNTFTQRLFDNPELTQEEAIRQMYPGISGVQTAEKLQENFMADVYIQAAIRQEIVVQLIR noted as -0.529

Lab book: soluble fraction (log2) of HMTRIHEEVVNQVHDLVKEGRFKAGDQLPSERELAEIFKVSRTSVREALRALETQGLIISRTGMGNFIAD noted as -0.0448

----------
- Protocol Details: soluble fraction after stress (log2 fold change); higher = more stays soluble; pooled small domains, quantitative proteomics
- Measurement Conditions: stress: 50 degC
Quantity Measured: soluble fraction (log2)
Please respond with just the number, no unit label.

// worked examples, soluble fraction (log2) included
HMSAEVSEIEIQRIISYYRNQNGVPDKYNEIFDRIAAQYTDEQLKVISNFLPSDVKQYLSFNNEKYKSLG: -0.295
HMEHIDVSGRAFDVSVSRLKRARRLTMRIDTHKQLVKISAPLHVESSTIRAFLARNQNWLEQQVEKR: -0.881
HMKSLVDLEISIVKKDMNYFVLPKINGEPLLMERISASEYKDFQLGKLSKEDIFQKHYPDYSEENIKNGRG: 0.145
HMISADSSKVDTLVQVYSNMKPIQAAQVFEKMDEDLVIEILSRMKKKNAADILNLIKTEKAQVFAEKYA: 0.0124
HMEQEVLDLLFDAIRSLPEKYRRLFDMSFEQGLKNAEIAALLHVSESAVKKQKASMIQQLRDDLLRKTGKD: -0.693

Lab book: soluble fraction (log2) of HMLFQGDTPAENIILEILSKNGTTASDSIIKQSGLSVSDFNQAATMLEIKGLISNNGGNIWSL noted as 0.0636

Lab book: soluble fraction (log2) of HMNQIDDADRKRVVDEVAGQFSSMSLTEMRSDREKLLSRIIPQVQTTLNRLGLQTIDVEGIAREVIARVG noted as 0.159

Lab book: soluble fraction (log2) of HMRTKEGLASQLEKIPGIGPVKRKALLKKFGSIDAIAAASKEELMLTDGITSSLADAIRDYF noted as 0.00122

Lab book: soluble fraction (log2) of HMRSVTLQTDREGDILYVDGKQIGVSPQRLELSYGVHTIRAERGEQHTEKELEVTETGGETVVTLGFG noted as 0.129

All values here come from the domain aggregation screens of Martell et al. (2025).
